- assayRemarks: NCI Yeast Anticancer Drug Screen. Data for the rad50EPP+ strain (AID 151);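 note: 0% = growth of vehicle-treated control cultures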
- testConditions: S. cerevisiae rad50 mutant strain, at 1.2 µM, active compounds read high
The panel holds about 79,000 compounds, 15% with a hit somewhere; the sample as a whole holds those more often.
Listed here are compounds together with their documented growth inhibition.
Write it as a number; the unit % goes unstated.

Observe how each entry below is paired with its result.
compound=O=C1C=C(Cl)C(=O)N1c1cccc(Cl)c1 datavalue=41
compound=CCN(CC)CCN(C)CCc1ccc(Br)cc1 datavalue=-3
compound="COc1ccc(NC(=O)CC2SC(=Nc3ccccc3C)NC2=O)c([N+](=O)[O-])c1 (configuration not stated)" datavalue=-2
compound=NC1CCCCC1N.Nc1c(N=Nc2ccc(-c3ccc(N=Nc4cc(S(=O)(=O)[O-])c5ccccc5c4N)cc3)cc2)cc(S(=O)(=O)[O-])c2ccccc12.[OH3+].[OH3+].[Pt+4] datavalue=-7
compound="Cc1cccc(C(C)(C)C)c1NC(=O)C(C#N)C1=C(Cl)C(=O)c2ccccc2C1=O (configuration not stated)" datavalue=14
compound=Cc1cc(-c2cc(C)c(O)c(C(C)(C)C)c2)cc(C(C)(C)C)c1O datavalue=-35
compound=O=c1[nH]c(-c2ccccc2)nc2c1sc1nc3ccccc3n12 datavalue=-2
compound="CC[N+]1(C)CCC(O)(c2ccc(OC)cc2)C(C(=O)c2ccc(OC)cc2)C1 (configuration not stated)" datavalue=-32
compound="CC1CC(C)(C)CC(OCCN2CCCCC2)(c2ccccc2)C1 (configuration not stated)" datavalue=-5
compound=CCC(=O)c1cc(C(=O)C(=S)SC)cc(C(=O)C(=S)SC)c1 datavalue=3

Reported growth inhibition of Cc1c2ccnc(C(=O)NCCN(C)C)c2cc2c3cc(O)ccc3n(C)c12 : -2

Reported growth inhibition of Cc1cc2cc3cc(C)c(N)cc3nc2cc1N : -10

Reported growth inhibition of CC(C)/C(Cl)=N\OC(=O)Nc1ccc(F)cc1F : 7

###

- assayRemarks: NCI Yeast Anticancer Drug Screen. Data for the sgs1 strain (AID 173);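 note: 0% = growth of vehicle-only control cultures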
- testConditions: S. cerevisiae sgs1 mutant, at 1.2 µM, active compounds read high
This is part of a sample that, as a whole, favours compounds with a hit. Of some 79,000 tested, about 15% had one in any assay.
Listed here are molecules together with their documented growth inhibition.
Write it as a number; the unit % goes unstated.

Reported growth inhibition of CC(C)(CCCCC(C)(C)[N+](C)(C)C)[N+](C)(C)C : -1

###

- assayRemarks: NCI Yeast Anticancer Drug Screen. Data for the rad18 strain (AID 177)
- testConditions: S. cerevisiae rad18 mutant growth inhibition; at 1.2 µM; active compounds read high
This is part of a sample that, as a whole, favours compounds with a hit. Of some 79,000 tested, about 15% had one in any assay. The source made the active and inactive calls. Rule as the data show it: active = growth inhibition above about 70%; inactive = the rest.
attributeMeasured: growth inhibition

Observe how each entry below is paired with its result.
molecule=CS(=O)(=O)OCCN(CCOS(C)(=O)=O)c1ccc(C=Nc2ccc(-c3csc(COc4ccccc4)n3)cc2)cc1 datavalue="15% (inactive)"
molecule=Cc1cc2c3ccccc3c3ccccc3c2nn1 datavalue="-2% (inactive)"
molecule="C=C1CC(CCCl)(c2ccccc2)OC1=O (stereo unspecified)" datavalue="0% (inactive)"
molecule="CC(NCCN(C)C)C1CCC2C3CCc4cc(O)ccc4C3CCC12C (stereo unspecified)" datavalue="22% (inactive)"
molecule="CCOC(=O)CC1(C(=O)OCC)c2[nH]c3ccccc3c2CCN1Cc1ccccc1 (stereo unspecified)" datavalue="-3% (inactive)"
molecule=CN(C)CCNC(=O)c1cccc2cc([N+](=O)[O-])ccc12 datavalue="7% (inactive)"
molecule=CCN(CC)CCN(C)CCc1ccc(Br)cc1 datavalue="11% (inactive)"
molecule=N#CC(=Nc1ccccc1F)Nc1ccccc1F datavalue="-6% (inactive)"

Reported growth inhibition of Cc1cc(O)c(C(C)C)cc1C1(c2cc(C(C)C)c(O)cc2C)OC(=O)c2ccccc21 : 10% (inactive)

Reported growth inhibition of COc1ccc(C(NCCNC(c2ccc(OC)c(OC)c2)c2cc3c(cc2O)OCO3)c2cc3c(cc2O)OCO3)cc1OC (stereo unspecified) : -4% (inactive)

Reported growth inhibition of O=C(NCCCNCCN1C(=O)c2cccc3cc([N+](=O)[O-])cc(c23)C1=O)c1cc(-c2ccccc2)nc2ccccc12 : -3% (inactive)
